src = ChEMBL document CHEMBL1138814

test system: HFF; assay: Cytotoxicity produced in stationary HFF cells was determined by microscopic inspection of uninfected cells; type: functional, cell-based; details: Homo sapiens
Record form. Attribute: pIC50. Fill in for each entry.
FYI, pIC50 means -log10 of a concentration in mol per litre.

q: Entry [N-]=[N+]=NC[C@H]1OC(n2c(Cl)c(C=O)c3cc(Cl)c(Cl)cc32)C(O)[C@@H]1O (single isomer, unassigned) : reported pIC50 = ?
a: 4.49

q: Entry N#Cc1c(Cl)n(C2O[C@H](CF)[C@@H](O)C2O)c2cc(Cl)c(Cl)cc12 (single isomer, unassigned) : reported pIC50 = ?
a: 4.49

q: Entry C[C@H]1OC(n2c(Cl)c(C=O)c3cc(Cl)c(Cl)cc32)C(O)[C@@H]1O (single isomer, unassigned) : reported pIC50 = ?
a: 4.49

q: Entry N#Cc1c(Cl)n([C@H]2C[C@H](O)[C@@H](CO)O2)c2cc(Cl)c(Cl)cc12 : reported pIC50 = ?
a: 4.49

q: Entry O=Cc1c(Cl)n(C2O[C@H](CF)[C@@H](O)C2O)c2cc(Cl)c(Cl)cc12 (single isomer, unassigned) : reported pIC50 = ?
a: 4.49

q: Entry COc1c(C=O)c2cc(Cl)c(Cl)cc2n1[C@H]1C[C@H](O)[C@@H](CO)O1 : reported pIC50 = ?
a: 4.00

---

Record form. Attribute: IC50. Fill in for each entry.
test system: HFF; assay: Inhibitory concentration required against human cytomegalovirus (HCMV) r56 strain (UL56 mutant gene) expressed in HFF cells was determined by plaque reduction assay; assay type: functional, cell-based
Write down the numeric answer in nM and omit the unit.

q: Please tell me: IC50 of CC(=O)c1c(Cl)n(C2O[C@H](CO)[C@@H](O)C2O)c2cc(Cl)c(Cl)cc12 (single isomer, unassigned) , system HFF?
a: 1200

q: Please tell me: IC50 of OC[C@H]1O[C@@H](n2c(Br)nc3cc(Cl)c(Cl)cc32)C(O)[C@@H]1O (single isomer, unassigned) , system HFF?
a: 6700

q: Please tell me: IC50 of Nc1nc2c(ncn2COC(CO)CO)c(=O)[nH]1 , system HFF?
a: 1200

q: Please tell me: IC50 of CC(=O)c1c(Cl)n([C@H]2C[C@H](O)[C@@H](CO)O2)c2cc(Cl)c(Cl)cc12 , system HFF?
a: 1800

q: Please tell me: IC50 of O=Cc1c(Cl)n(C2O[C@H](CO)[C@@H](O)C2O)c2cc(Cl)c(Cl)cc12 (single isomer, unassigned) , system HFF?
a: 1800

q: Please tell me: IC50 of CC(=O)OC[C@H]1OC(n2c(Cl)c(C=O)c3cc(Cl)c(Cl)cc32)C(O)[C@@H]1O (single isomer, unassigned) , system HFF?
a: 1600

---

tested on: HFF; assay: Inhibitory concentration required against human cytomegalovirus (HCMV) D10 strain (UL89 mutant gene) expressed in HFF cells was determined by plaque reduction assay; type: functional, cell-based
Parameter measured: pIC50
FYI, pIC50 means -log10 of a concentration in mol per litre.

q: Please tell me: pIC50 of OC[C@H]1O[C@@H](n2c(Br)nc3cc(Cl)c(Cl)cc32)C(O)[C@@H]1O (single isomer, unassigned) , system HFF?
a: 4.92

q: Please tell me: pIC50 of O=Cc1c(Cl)n(C2O[C@H](CO)[C@@H](O)C2O)c2cc(Cl)c(Cl)cc12 (single isomer, unassigned) , system HFF?
a: 6.06

q: Please tell me: pIC50 of CC(=O)OC[C@H]1OC(n2c(Cl)c(C=O)c3cc(Cl)c(Cl)cc32)C(O)[C@@H]1O (single isomer, unassigned) , system HFF?
a: 6.06

q: Please tell me: pIC50 of CC(=O)c1c(Cl)n(C2O[C@H](CO)[C@@H](O)C2O)c2cc(Cl)c(Cl)cc12 (single isomer, unassigned) , system HFF?
a: 6.14

q: Please tell me: pIC50 of Nc1nc2c(ncn2COC(CO)CO)c(=O)[nH]1 , system HFF?
a: 5.92

q: Please tell me: pIC50 of CC(=O)c1c(Cl)n([C@H]2C[C@H](O)[C@@H](CO)O2)c2cc(Cl)c(Cl)cc12 , system HFF?
a: 6.12

---

test system: HFF; assay: Cytotoxicity produced in stationary HFF cells was determined by microscopic inspection of uninfected cells; format: functional, cell-based; details: Homo sapiens
Parameter measured: pIC50
FYI, pIC50 means -log10 of a concentration in mol per litre.

q: Entry C[C@H]1OC(n2c(Cl)nc3cc(Cl)c(Cl)cc32)C(O)[C@@H]1O (single isomer, unassigned) : reported pIC50 = ?
a: 4.00

q: Entry OC[C@H]1O[C@@H](n2c(Cl)c(-c3ccco3)c3cc(Cl)c(Cl)cc32)C[C@@H]1O : reported pIC50 = ?
a: 5.49

q: Entry OC[C@H]1O[C@@H](n2c(Cl)c(-c3ccsc3)c3cc(Cl)c(Cl)cc32)C[C@@H]1O : reported pIC50 = ?
a: 4.49

q: Entry C[C@H]1OC(n2c(Cl)c(C#N)c3cc(Cl)c(Cl)cc32)C(O)[C@@H]1O (single isomer, unassigned) : reported pIC50 = ?
a: 4.49

---

system: HFF; assay: Inhibitory concentration required against human cytomegalovirus (HCMV) wild type expressed in HFF cells was determined by plaque reduction assay; type: functional, cell-based
Record form. Attribute: IC50. Fill in for each entry.
Write down the numeric answer in nM and omit the unit.

q: Entry CC(=O)c1c(Cl)n(C2O[C@H](CO)[C@@H](O)C2O)c2cc(Cl)c(Cl)cc12 (single isomer, unassigned) : reported IC50 = ?
a: 260

q: Entry CC(=O)c1c(Cl)n([C@H]2C[C@H](O)[C@@H](CO)O2)c2cc(Cl)c(Cl)cc12 : reported IC50 = ?
a: 220

q: Entry OC[C@H]1O[C@@H](n2c(Br)nc3cc(Cl)c(Cl)cc32)C(O)[C@@H]1O (single isomer, unassigned) : reported IC50 = ?
a: 990

q: Entry O=Cc1c(Cl)n(C2O[C@H](CO)[C@@H](O)C2O)c2cc(Cl)c(Cl)cc12 (single isomer, unassigned) : reported IC50 = ?
a: 460

q: Entry CC(=O)OC[C@H]1OC(n2c(Cl)c(C=O)c3cc(Cl)c(Cl)cc32)C(O)[C@@H]1O (single isomer, unassigned) : reported IC50 = ?
a: 220

q: Entry Nc1nc2c(ncn2COC(CO)CO)c(=O)[nH]1 : reported IC50 = ?
a: 1200
